target_or_test_system: hGLP-1R (Homo sapiens, UniProt P43220)
Sequence (P43220 24-463): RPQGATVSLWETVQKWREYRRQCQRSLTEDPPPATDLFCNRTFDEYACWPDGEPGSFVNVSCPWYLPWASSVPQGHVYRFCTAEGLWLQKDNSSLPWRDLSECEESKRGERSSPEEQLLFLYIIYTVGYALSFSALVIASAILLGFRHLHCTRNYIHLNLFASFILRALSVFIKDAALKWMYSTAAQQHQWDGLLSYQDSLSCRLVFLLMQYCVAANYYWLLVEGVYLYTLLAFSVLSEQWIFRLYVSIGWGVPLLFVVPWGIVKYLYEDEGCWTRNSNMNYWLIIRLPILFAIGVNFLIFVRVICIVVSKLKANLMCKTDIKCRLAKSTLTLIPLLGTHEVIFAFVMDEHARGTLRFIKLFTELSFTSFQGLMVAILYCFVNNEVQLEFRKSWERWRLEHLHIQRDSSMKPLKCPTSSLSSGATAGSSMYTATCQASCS
assay_notes: cell-based or functional assay
Use rule met when the recorded Relative cAMP EC50, nM (0.1% casein) is no lower than 3 nM; use rule not met when it is lower.

Here are 3 binders together with their reported answers.
>>> answer_label("YXQGTFTSDXSXXLDKKAQXAFIEYLLAGGPSSGEPPPSGS (Aib, 4Pal, Orn, αMeL; lipidated Lys; C-terminal amide; synthetic construct; SITE 2: note = 2-Aminoisobutyric Acid; SITE 10: note = 3-(4-Pyridyl)-L-alanine; SITE 12: note = L-ornithine; SITE 13: note = alpha-methyl-leucine; SITE 17: note = Lysine is chemically modified through conjugation of the epsilon-amino group of the Lysine side chain with (2-[2-(2-) [Example 154]")
"rule met"
>>> answer_label("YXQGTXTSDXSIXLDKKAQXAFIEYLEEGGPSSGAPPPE (synthetic construct; SITE 2: note = 2-Aminoisobutyric Acid; SITE 6: note = alpha-methyl-2-fluoro-L-phenylalanine; SITE 10: note = 4-nitro-L-phenylalanine; SITE 13: note = alpha-methyl-leucine; SITE 17: note = Lysine is chemically modified through conjugation of the epsilon-amino group of the Lysine) [Example 495]")
"rule not met"
>>> answer_label("YXQGTFTSDFSXXLDKKAQXAFIEYLLEGGPSSGAPPPEGT (Aib, Orn, αMeL, acylated Lys, amide; synthetic construct; SITE 2: note = 2-Aminoisobutyric Acid; SITE 12: note = L-ornithine; SITE 13: note = alpha-methyl-leucine; SITE 17: note = Lysine is chemically modified through conjugation of the epsilon-amino group of the Lysine side chain with (2-[2-(2-Amino-ethoxy)-ethoxy]-acetyl)-(gamma-Glu)) [Example 160]")
"rule met"

Decide: is the reported value of Relative cAMP EC50, nM (0.1% casein) for YXQGTXTSDXSIXLDXKAQXXFIEYLIEGGPSSGEPPPSEG (synthetic construct; SITE 2: note = 2-Aminoisobutyric Acid; SITE 6: note = alpha-methyl-2-fluoro-L-phenylalanine; SITE 10: note = 3-(4-Pyridyl)-L-alanine; SITE 13: note = alpha-methyl-leucine; SITE 16: note = L-ornithine; SITE 17: note = Lysine is chemically modified through conjugation of the epsil) [Example 489] equal to or greater than 3 nM? rule not met

Decide: is the reported value of Relative cAMP EC50, nM (0.1% casein) for YXQGTFTSDFSXXLDKKAQXAFIEYLLEAGPSSGEPPPSGT ((AEEA)2-γGlu-C18 diacid on Lys; non-natural residues; amide; synthetic construct; SITE 2: note = 2-Aminoisobutyric Acid; SITE 12: note = L-ornithine; SITE 13: note = alpha-methyl-leucine; SITE 17: note = Lysine is chemically modified through conjugation of the epsilon-amino group of the Lysine side chain with (2-[2-(2-Amino-ethoxy)-ethoxy]-acetyl)2-(gamma-Glu)) [Example 156] equal to or greater than 3 nM? rule met

Decide: is the reported value of Relative cAMP EC50, nM (0.1% casein) for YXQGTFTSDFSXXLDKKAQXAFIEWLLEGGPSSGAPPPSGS (Aib, Orn, αMeL; acylated K; C-terminal amide; synthetic construct; SITE 2: note = 2-Aminoisobutyric Acid; SITE 12: note = L-ornithine; SITE 13: note = alpha-methyl-leucine; SITE 17: note = Lysine is chemically modified through conjugation of the epsilon-amino group of the Lysine side chain with (2-[2-(2-Amino-ethoxy)-ethoxy]-acetyl)-(gamma-Glu)) [Example 168] equal to or greater than 3 nM? rule not met

The measurements presented in this section are drawn from patent US20240270821A1.
